Reference source: patent US20240352105A1

target-of-assay: T1, recombinant His-tagged Der p1 (dust mite, UniProt P08176 99-320, limits assumed)
T1 construct: Recombinant His-tagged protein made by the applicant; also called Der p1-His; Der pl; not shown: His tag
T1 sequence (looked up): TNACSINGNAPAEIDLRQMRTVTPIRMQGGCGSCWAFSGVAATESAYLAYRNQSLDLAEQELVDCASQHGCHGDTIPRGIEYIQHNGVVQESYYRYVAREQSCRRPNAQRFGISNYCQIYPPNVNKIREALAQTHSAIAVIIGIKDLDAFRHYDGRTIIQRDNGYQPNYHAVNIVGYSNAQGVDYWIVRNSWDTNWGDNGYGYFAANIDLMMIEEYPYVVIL
assay-info: ELISA, antigen coated on plate
assay-readout: EC50 (µg/mL)
Please give a number only; it is taken to be in µg/mL.

Sample answers from the record:
SDAB22129-55-35-46-49-1-B02 (VHH, Expressed from a prokaryotic vector) VHH: QLQLVESGGGLVQSGGSLRLSCVAKGGTNHPYPIGWFRQAPGKEQEGVLCIASGGQTQDSAHNPNWADSVKGRFTISRDDATHTVYLEMNNLKADDTAVYFCAAPREIYIDSRCATYKYEYWGQGTQVTVSP: 0.0193
SDAB22129-55-35-46-49-1-G09 (VHH, Expressed from a prokaryotic vector) VHH: QVKLEESGGGAVQPGGSLRLSCTASGQTFSNYIISWFRQAPGKEREFVVGISKSGGRTYYADSAKGRFTISRDNAKNTVYLQMSSLKPEDTAVYYCAADGLVLTAAAAEYDYWGQGTQVTVSS: 0.154
SDAB22129-55-35-46-49-1-A04 (VHH, Expressed from a prokaryotic vector) VHH: QLQLVESGGGLVQPGGSLRLSCAASGRVYNSWTMAWFRQAPGKEREFVGAFSLLDSGTRYADSLKDRVAISRDDAANTQWLQLSALKPEDTAVYYCAAKSGTIRATSEGQYNYWGQGIQVTVSS: 3.41

Pending binder:
Q: Please report the recorded EC50 for SDAB22129-55-35-46-49-1-D01 (VHH, Expressed from a prokaryotic vector) VHH: QVQLVESGGGLVQAGGSLRLSCAASGRTFSRYAMGWFRQAPGKEREFVAAITGSGSRTYYADSIQGRFTISRDNAKNTVYLQMNSLKPEDTAVYYCVQGWAEATMTSLGEDYDYWGQGTQVTVSS .
Result: 0.0147
